Recorded fold increase for the following molecules
- measurementTarget: Cystic fibrosis transmembrane conductance regulator (Homo sapiens)
- methodDescription: compounds raising F508del-CFTR protein level – cell-based, HeLa F508del-CFTR, immunofluorescence, viability, primary screen (AID 1224863);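 note: total CFTR protein by anti-CFTR immunofluorescence in fixed cells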
- runParameters: immunofluorescence total CFTR, 24 h; measured here: primary screen 10 ug/mL, library dosed in µg/mL, stronger effect = higher value unless noted
In all, about 10,000 compounds went through this assay and about 15 (0.1%) were called active. The list is a sample of the results.

Check out these entries, answers already filled in.
1. CN1CCN(S(=O)(=O)c2ccc(Sc3ccc(Br)cc3)nc2)CC1 : 0.92
2. Clc1ccc(-n2nnnc2SCCCc2nc3ccccc3o2)cc1 : 0.85

Query: Return fold increase (reported value) for this molecule: NC1CC(=O)N(c2ccc(Oc3ccccc3)cc2)C1 (centres undefined)
Response: 0.71

Query: Please list fold increase recorded for the molecule `O=C(Cn1ncc(Cl)c(Cl)c1=O)N1CCNC1=O`
Response: 1.56

Query: Give a short answer stating reported fold increase for O=C(C1CCCO1)N1CCN(Cc2ccc3c(c2)CCO3)CC1 (centres undefined) .
Response: 1.05

Query: Query fold increase for CC1(c2ccccc2)NC(=O)N(Cc2cc(=O)n3ccccc3n2)C1=O (centres undefined)
Response: 1.06

Query: Kindly indicate its recorded fold increase. Item: Cc1nn(-c2ccccc2)c2c1CC(C#N)(c1nc3ccccc3s1)C1CCCN21 (centres undefined)
Response: 1.29

Query: For the molecule NC(=O)C1CCCN1S(=O)(=O)c1ccc(Cl)s1 (centres undefined) , give its reported fold increase.
Response: 1.06

Query: Note fold increase for the molecule shown: `CSCCSc1nnc(-c2ccccc2)n1-c1ccc(Cl)cc1`
Response: 0.92

Query: Using known records, supply fold increase for `CCC(C)(C)NC(=O)CCNC(=O)/C=C/c1ccco1`
Response: 0.85

Query: Look up and state reported fold increase for `Cn1nnn(CN2CCN(c3ccccc3)CC2)c1=S`
Response: 1.1

Query: Give the reported value of fold increase for this record: `CCc1c(C)sc2nc(SCCO)n(CCOC)c(=O)c12`
Response: 1

Query: State its fold increase: `Cc1sc2nc(CN3CCCC3)nc(-n3nnc(-c4cccnc4)n3)c2c1C`
Response: 1.04

Query: Please look at this molecule and report its fold increase: `O=S(=O)(Nc1cc2c(cc1Br)OCCO2)c1ccc(Br)cc1`
Response: 1.03

----------
Each entry below lists one item and its recorded fold increase value.
- measurementTarget: Cystic fibrosis transmembrane conductance regulator (Homo sapiens)
- methodDescription: compounds raising F508del-CFTR protein level – cell-based, HeLa F508del-CFTR, immunofluorescence, viability, primary screen (AID 1224863);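 note: total CFTR protein by anti-CFTR immunofluorescence in fixed cells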
- runParameters: immunofluorescence total CFTR, 24 h; measured here: primary screen 10 ug/mL, library dosed in µg/mL, stronger effect = higher value unless noted
About 15 (0.1%) of roughly 10,000 compounds were called active. These entries were drawn from the full list.
# answer = number (no unit)

Would you please look over these solved cases?
1) O=C(CSc1nc(O)cc(=O)n1C1CCCC1)NC12CC3CC(CC(C3)C1)C2 : 0.96
2) CCn1c(SCCS(=O)(=O)c2ccc(Br)cc2)nc2ccccc21 : 0.65
3) Cc1noc2nc(-c3ccco3)cc(C(=O)OCc3cc(=O)n4cc(Cl)ccc4n3)c12 : 1.11

Query: Specify fold increase for `c1ccc2c(c1)ncn2CN1CCN(Cc2csc3ccccc23)CC1` and stop.
Response: 1.18

Query: Please report the measured fold increase for Cc1[nH]c2ccccc2c1C(=O)C(C)OC(=O)C12CC3CC(C1)CC(c1ccccc1)(C3)C2 (stereo not given)
Response: 0.91
